// reported IC50 per item
Target Entity: CCR2 (Homo sapiens (Human), UniProt P41597)
Sequence (P41597 other isoform, or with tags, fused parts or gaps isoform P41597-2): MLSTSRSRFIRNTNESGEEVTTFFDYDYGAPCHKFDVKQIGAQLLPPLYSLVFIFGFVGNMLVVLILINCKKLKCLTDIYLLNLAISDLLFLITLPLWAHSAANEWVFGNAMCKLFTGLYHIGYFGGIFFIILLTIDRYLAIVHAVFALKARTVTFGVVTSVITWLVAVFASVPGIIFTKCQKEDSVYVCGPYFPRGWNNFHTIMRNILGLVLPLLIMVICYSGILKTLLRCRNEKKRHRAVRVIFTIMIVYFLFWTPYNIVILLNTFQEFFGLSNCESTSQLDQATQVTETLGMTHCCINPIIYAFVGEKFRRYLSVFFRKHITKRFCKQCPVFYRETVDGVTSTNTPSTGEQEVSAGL
Protocol Notes: MCP-1 Receptor Binding Assay in THP-1 Cells
Particulars: 0.5 nM 125I labeled MCP-1, 2 hours at 30° C., average of the two most similar values where more than one IC50, read-out: Inhibition of MCP-1 Binding IC50 CCR2 Binding
Where a name gives a salt, the structure may show the parent alone.
Express your answer in µM, writing the number without its unit.

Example entries and their recorded answers appear below.
NC(=O)C(NC1CCC(c2c[nH]c3ccccc23)CC1)C1CCN(C(=O)/C=C/c2ccc3c(c2)CCC3)CC1 (stereo not drawn)	0.12
NC(=O)C(NC1CCC(c2c[nH]c3ccccc23)CC1)C1CCN(C(=O)Nc2ccc(C(F)(F)F)cc2)CC1 (stereo not drawn)	0.13
NC(=O)C(NC1CCC(c2c[nH]c3ncccc23)CC1)C1CCN(C(=O)/C=C/c2cc(F)cc(F)c2)CC1 (stereo not drawn)	0.33
NC(=O)C(N[C@H]1CC[C@H](C2CNc3ccccc32)CC1)C1CCN(C(=O)/C=C/c2cc(F)c(F)c(F)c2)CC1 (stereo partly drawn)	0.95

Problem: Output measured IC50 for this item: NC(=O)C(NC1CCC(c2c[nH]c3ccccc23)CC1)C1CCN(C(=O)/C=C/c2ccc3c(c2)CCO3)CC1 (stereo not drawn)
Solution: 0.149

Problem: Output measured IC50 for this item: O=C(NO)C(NC1CCC(c2c[nH]c3ccccc23)CC1)C1CCN(C(=O)/C=C/c2cc(F)c(F)c(F)c2)CC1 (stereo not drawn)
Solution: 0.665

Problem: Output measured IC50 for this item: NC(=O)C(NC1CCC(c2c[nH]c3ncccc23)CC1)C1CCN(C(=O)/C=C/c2cc(F)c(F)c(F)c2)CC1 (stereo not drawn)
Solution: 0.132

Problem: Output measured IC50 for this item: NC(=O)C(NC1CCC(c2c[nH]c3ccccc23)CC1)C1CCN(C(=O)/C=C/c2ccccc2F)CC1 (stereo not drawn)
Solution: 0.27

Problem: Output measured IC50 for this item: O=C(O)C(N[C@H]1CC[C@@H](c2c[nH]c3ccccc32)CC1)C1CCN(C(=O)Nc2ccc(Cl)c(Cl)c2)CC1 (stereo partly drawn) [Example 28, hydrochloride]
Solution: 0.32

Problem: Output measured IC50 for this item: NC(=O)C(NC1CCC(c2c[nH]c3cccnc23)CC1)C1CCN(C(=O)/C=C/c2cc(F)cc(F)c2)CC1 (stereo not drawn)
Solution: 0.13

Problem: Output measured IC50 for this item: NC(=O)C(NC1CCC(c2c[nH]c3ccccc23)CC1)C1CCN(C(=O)Nc2ccc(Cl)c(Cl)c2)CC1 (single isomer, unassigned) [Example 4b]
Solution: 0.008

Problem: Output measured IC50 for this item: NC(=O)C(NC1CCC(c2c[nH]c3cccnc23)CC1)C1CCN(C(=O)/C=C/c2cc(F)c(F)c(F)c2)CC1 (single isomer, unassigned) [Example 39b]
Solution: 0.6

Problem: Output measured IC50 for this item: O=C(O)C(N[C@H]1CC[C@H](c2c[nH]c3ccccc32)CC1)C1CCN(C(=O)/C=C/c2cc(F)c(F)c(F)c2)CC1 (stereo partly drawn) [Example 26, hydrochloride]
Solution: 0.02

Problem: Output measured IC50 for this item: CCOC(=O)c1cccc(NC(=O)N2CCC(C(NC3CCC(c4c[nH]c5ccccc45)CC3)C(N)=O)CC2)c1 (stereo not drawn)
Solution: 0.058

Problem: Output measured IC50 for this item: CSc1cccc(NC(=O)N2CCC(C(NC3CCC(c4c[nH]c5ccccc45)CC3)C(N)=O)CC2)c1 (stereo not drawn)
Solution: 0.71

Problem: Output measured IC50 for this item: O=C(O)C(N[C@H]1CC[C@H](c2c[nH]c3ccccc32)CC1)C1CCN(C(=O)/C=C/c2cc(F)cc(F)c2)CC1 (stereo partly drawn) [Example 25, hydrochloride]
Solution: 0.22

Problem: Output measured IC50 for this item: NC(=O)C(NC1CCC(c2c[nH]c3ccccc23)CC1)C1CCN(C(=O)/C=C/c2cccc(C(F)(F)F)c2)CC1 (stereo not drawn)
Solution: 0.075

Problem: Output measured IC50 for this item: NC(=O)C(NC1CCC(c2c[nH]c3ccccc23)CC1)C1CCN(C(=O)/C=C/c2ccc(F)c(F)c2)CC1 (stereo not drawn)
Solution: 0.021

Problem: Output measured IC50 for this item: COc1ccc(C2CCC(NC(C(N)=O)C3CCN(C(=O)/C=C/c4cc(F)c(F)c(F)c4)CC3)CC2)cn1 (stereo not drawn)
Solution: 0.635

Problem: Output measured IC50 for this item: NC(=O)C(NC1CCC(c2c[nH]c3ccncc23)CC1)C1CCN(C(=O)Nc2ccc(Cl)c(Cl)c2)CC1 (stereo not drawn)
Solution: 0.04

Problem: Output measured IC50 for this item: NC(=O)C(NC1CCC(c2c[nH]c3ccccc23)CC1)C1CCN(C(=O)/C=C/c2ccccc2)CC1 (stereo not drawn)
Solution: 0.19

Hello, the source for this data is patent US8921559B2, in case you need it.
